The reported measurements were obtained from ChEMBL document CHEMBL1136227.

Test system: HT-1080
Assay: Compound was induced transcription in transiently transfected with constructs encoding separate DNA-binding domain and activation domain proteins in HT1080 human fibrosarcoma cells
Format: functional, cell-based
pEC50: −log10 of the molar value.
PROPERTY NAME: pEC50

Some solved cases for reference:
COc1ccc(CC[C@@H](OC(=O)[C@@H]2CCCCN2C(=O)Cc2ccccc2)c2cccc(OCC(=O)NCCNC(=O)COc3cccc([C@@H](CCc4ccc(OC)c(OC)c4)OC(=O)[C@@H]4CCCCN4C(=O)Cc4ccccc4)c3)c2)cc1OC
7.70
CO[C@H]1C[C@@H](C)C/C(C)=C/[C@@H](C/C=C/CC2/C=C(\C)C[C@H](C)C[C@H](OC)[C@H]3O[C@@](O)(C(=O)C(=O)N4CCCCC4C(=O)O[C@H](/C(C)=C/[C@@H]4CC[C@@H](O)[C@H](OC)C4)[C@H](C)[C@@H](O)CC2=O)[C@H](C)C[C@H]3OC)C(=O)C[C@H](O)[C@@H](C)[C@@H](/C(C)=C/[C@@H]2CC[C@@H](O)[C@H](OC)C2)OC(=O)C2CCCCN2C(=O)C(=O)C2O[C@H]1[C@H](OC)C[C@H]2C (some centres undefined)
6.72
CC[C@H](C(=O)N1CCCC[C@H]1C(=O)O[C@H](CCc1ccc(OC)c(OC)c1)c1cccc(OCC(=O)NCCNC(=O)COc2cccc([C@@H](CCc3ccc(OC)c(OC)c3)OC(=O)[C@@H]3CCCCN3C(=O)[C@@H](CC)c3ccccc3)c2)c1)c1ccccc1
8.40
CC[C@H](C(=O)N1CCCC[C@H]1C(=O)O[C@H](CCc1ccc(OC)c(OC)c1)c1cccc(OCC(=O)NCCNC(=O)COc2cccc([C@@H](CCc3ccc(OC)c(OC)c3)OC(=O)[C@@H]3CCCCN3C(=O)[C@@H](CC)c3ccc4c(c3)OCO4)c2)c1)c1ccc2c(c1)OCO2
8.22
CC[C@H](C(=O)N1CCCC[C@H]1C(=O)O[C@H](CCc1ccc(OC)c(OC)c1)c1cccc(OCC(=O)NCCNC(=O)COc2cccc([C@@H](CCc3ccc(OC)c(OC)c3)OC(=O)[C@@H]3CCCCN3C(=O)[C@@H](CC)c3cc(OC)c(OC)c(OC)c3)c2)c1)c1cc(OC)c(OC)c(OC)c1 (stereo in doubt; form 1)
8.52

[I] CCC(C)(C)C(=O)C(=O)N1CCCC[C@H]1C(=O)O[C@H](CCc1ccc(OC)c(OC)c1)c1cccc(OCC(=O)NCCNC(=O)COc2cccc([C@@H](CCc3ccc(OC)c(OC)c3)OC(=O)[C@@H]3CCCCN3C(=O)C(=O)C(C)(C)CC)c2)c1
[II] COc1ccc(CC[C@@H](OC(=O)[C@@H]2CCCCN2C(=O)[C@@H](C)c2cc(OC)c(OC)c(OC)c2)c2cccc(OCC(=O)NCCNC(=O)COc3cccc([C@@H](CCc4ccc(OC)c(OC)c4)OC(=O)[C@@H]4CCCCN4C(=O)[C@@H](C)c4cc(OC)c(OC)c(OC)c4)c3)c2)cc1OC
Endpoint returns the identifier whose pEC50 is numerically larger, either I or II . Lab log: write the label of the selected item as the result.
II
(II: 8.40, I: 6.75)

[I] CCC(CC)NC(=O)N1CCCC[C@H]1C(=O)O[C@H](CCc1ccc(OC)c(OC)c1)c1cccc(OCC(=O)NCCNC(=O)COc2cccc([C@@H](CCc3ccc(OC)c(OC)c3)OC(=O)[C@@H]3CCCCN3C(=O)NC(CC)CC)c2)c1
[II] CC[C@H](C(=O)N1CCCC[C@H]1C(=O)O[C@H](CCc1ccccc1)c1cccc(OCC(=O)NCCNC(=O)COc2cccc([C@@H](CCc3ccccc3)OC(=O)[C@@H]3CCCCN3C(=O)[C@@H](CC)c3cc(OC)c(OC)c(OC)c3)c2)c1)c1cc(OC)c(OC)c(OC)c1
Endpoint returns the identifier whose pEC50 is numerically larger, either I or II . Lab log: write the label of the selected item as the result.
I
